Values from ChEMBL document CHEMBL4665703

# System: Aorta
# runDescription: Vasorelaxant activity in Sprague-Dawley rat aortic artery assessed as reduction in phenylephrine-induced contractions
# Format: functional, tissue-based
pEC50: −log10 of the molar value.
readout: pEC50

INSERT INTO measurements (cpdsmiles, readout, value) VALUES
  ('CC[C@]12C=CCN3CCc4c(n(c5cc(O)ccc45)[C@](O)(C(=O)OC)C1)[C@@H]32', 'pEC50', 5.62),
  ('CC[C@]12C=CCN3CCc4c(n(c5cc(O)ccc45)[C@@](O)(C(=O)OC)C1)[C@@H]32', 'pEC50', 5.55);

###

Entries annotated with measured pEC50
# System: Aorta
# runDescription: Vasorelaxant activity in Sprague-Dawley rat aortic artery assessed as reduction in phenylephrine-induced contractions
# Type: functional, tissue-based
pEC50: −log10 of the molar value.

INSERT INTO results (compound, targetentity, readout, value) VALUES
  ('CC[C@]12CCCN3CCc4c(n(c5ccccc45)[C@@H](OC)C1)[C@@H]32', 'Aorta', 'pEC50', '< 5.00');

So for `C[C@H](O)[C@@]12C[C@@H](C(N)=O)c3[nH]c4ccccc4c3CCN(C[C@H](O)[C@H]1O)C2=O` , the logged pEC50 turned out to be < 5.00

So for `CC[C@@]12CC(C(=O)OC)=C3Nc4cc(O)ccc4[C@@]34CCN(C(=O)[C@H]3O[C@H]31)[C@@H]24` , the logged pEC50 turned out to be < 5.00

So for `C[C@H]1C(=O)[C@@]23C[C@@]14C=CCN1CC[C@@]2(c2ccccc2NC3=O)[C@@H]14` , the logged pEC50 turned out to be < 5.00
